target: HLA-B*0702 (Homo sapiens, UniProt P01889); format: binding; conditions: Table XXIV, B7 supermotif peptides
Where no end group is shown, it is not given here.
Please provide measured IC50 for the entries that follow.
Answer with a number only, understood to be in nM.

query: # IC50 lookup, item FPTHDPSPI [Her2/neu.1101.F1I9]
result: 108

query: # IC50 lookup, item FPAEQRASPI [Her2/neu.642.F1I10]
result: 3.1

query: # IC50 lookup, item FPKANKEII [Her2/neu.760.F1I9]
result: 8.5

query: # IC50 lookup, item FPLNNTTPV [Her2/neu.121.F1]
result: 0.2

query: # IC50 lookup, item FPYDGIPI [Her2/neu.921.F1I8]
result: 177

query: # IC50 lookup, item FPAEQRASPL [Her2/neu.642.F1]
result: 1.4

query: # IC50 lookup, item FPSGVKPDI [Her2/neu.600.F1I9]
result: 6.3

query: # IC50 lookup, item MPNQAQMRILI [Her2/neu.706.I11]
result: 344

query: # IC50 lookup, item CPSGVKPDLSY [Her2/neu.600]
result: 183

query: # IC50 lookup, item MPYGCLLDHVI [Her2/neu.801.I11]
result: 66

query: # IC50 lookup, item FPGGLRELQI [Her2/neu.133.F1I10]
result: 306

query: # IC50 lookup, item FPSETDGYI [Her2/neu.1120.F1I9]
result: 220

query: # IC50 lookup, item FPGKNGVI [Her2/neu.1174.F1I8]
result: 458

query: # IC50 lookup, item FPLAPSEGI [Her2/neu.1073.F1I9]
result: 100

query: # IC50 lookup, item CPAEQRASPL [Her2/neu.642]
result: 37

query: # IC50 lookup, item FPSGAMPNQI [Her2/neu.701.F1]
result: 229

query: # IC50 lookup, item FPLPAARPI [Her2/neu.1155.F1I9]
result: 6.5

* * *

molecular target: DRB1*0301 (DR3) (Homo sapiens, UniProt P01903+P01911, A100K/A102G/A103R/A169T/F55Y/I96L/K41T/L162R/M171V/P40S/Q125H/Q178H/Q39Y/R42S/S66N/T106N/T262R/W38E/Y61H); assay: HLA class II peptide binding assay, purified HLA; conditions: Table XXa, DR 3a motif peptides; unit not given
Where no end group is shown, it is not given here.
PARAMETER: DR3 binding data
The answer should be a number; do not append a unit.

query: # DR3 binding data lookup, item `MRRLLQETELVEPLT`
result: −0.0027

query: # DR3 binding data lookup, item `NQEVTAEDGTQRCEK`
result: −0.0027

query: # DR3 binding data lookup, item `DNLYYWDQDPPERGA`
result: −0.0025

query: # DR3 binding data lookup, item `NKEILDEAYVMAGVG`
result: 0.0047

query: # DR3 binding data lookup, item `TVPLPSETDGYVAPL`
result: −0.0025

query: # DR3 binding data lookup, item `SLAFLPESFDGDPAS`
result: −0.0027

query: # DR3 binding data lookup, item `GDLVDAEEYLVPQQG`
result: 0.0250

query: # DR3 binding data lookup, item `LVTYNTDTFESMPNP`
result: −0.0027

query: # DR3 binding data lookup, item `DLTLGLEPSEEEAPR`
result: −0.0025

query: # DR3 binding data lookup, item `FVVIQNEDLGPASPL`
result: −0.0025

query: # DR3 binding data lookup, item `SDVFDGDLGMGAAKG`
result: −0.0025

query: # DR3 binding data lookup, item `ARLLDIDETEYHADG`
result: 0.3100

query: # DR3 binding data lookup, item `DTILWKDIFHKNNQL`
result: −0.0027

query: # DR3 binding data lookup, item `AIKVLRENTSPKANK`
result: 0.0075

query: # DR3 binding data lookup, item `TAPLQPEQLQVEETL`
result: 0.0023

query: # DR3 binding data lookup, item `KNGVVKDVFAFGGAV`
result: −0.0025

query: # DR3 binding data lookup, item `SLSFLQDIQEVQGYV`
result: 0.0520

query: # DR3 binding data lookup, item `ETEYHADGGKVPIKW`
result: −0.0027

* * *

Please provide measured DR8w2 binding data for the entries that follow.
target: DRB1*0802 (DR8w2) (Homo sapiens, UniProt P01903+P01911, A100R/A103L/A169T/F76Y/H45Y/I96F/K41T/L162R/M171V/P40S/Q125H/Q178H/Q39Y/Q99D/R218S/R42G/S66Y/V115G/W38E); test: HLA class II peptide binding assay, purified HLA; settings: Table XIX, DR supermotif peptides; unit not given
The answer should be a number; do not append a unit.

query: # DR8w2 binding data lookup, item `CC(C)C[C@H](NC(=O)[C@H](CC(=O)O)NC(=O)[C@H](CCCNC(=N)N)NC(=O)[C@H](Cc1c[nH]cn1)NC(=O)[C@@H](NC(=O)[C@H](CC(C)C)NC(=O)[C@H](CCCNC(=N)N)NC(=O)[C@@H](N)C(C)C)C(C)C)C(=O)N[C@@H](C)C(=O)N[C@@H](C)C(=O)N[C@@H](CCCNC(=N)N)C(=O)N[C@@H](CC(N)=O)C(=O)N[C@H](C(=O)N[C@@H](CC(C)C)C(=O)N[C@H](C(=O)O)C(C)C)C(C)C`
result: 0.1000

query: # DR8w2 binding data lookup, item `CC[C@H](C)[C@H](NC(=O)CNC(=O)[C@H](CC(C)C)NC(=O)[C@H](CC(C)C)NC(=O)[C@H](CCCNC(=N)N)NC(=O)[C@@H](N)CO)C(=O)N[C@@H](CS)C(=O)N[C@@H](CC(C)C)C(=O)N[C@H](C(=O)N[C@@H](CO)C(=O)N[C@H](C(=O)N[C@H](C(=O)N[C@@H](CCC(N)=O)C(=O)N[C@@H](CC(C)C)C(=O)N[C@H](C(=O)O)C(C)C)C(C)C)[C@@H](C)O)[C@@H](C)O`
result: 0.0009

query: # DR8w2 binding data lookup, item `CSCC[C@H](NC(=O)[C@H](CC(C)C)NC(=O)[C@H](CCC(N)=O)NC(=O)[C@@H](NC(=O)[C@@H](NC(=O)[C@H](CC(C)C)NC(=O)[C@H](CCC(N)=O)NC(=O)[C@@H](NC(=O)[C@@H](N)[C@@H](C)O)C(C)C)C(C)C)[C@@H](C)O)C(=O)N1CCC[C@H]1C(=O)N[C@@H](Cc1ccc(O)cc1)C(=O)NCC(=O)N[C@@H](CS)C(=O)N[C@@H](CC(C)C)C(=O)N[C@@H](CC(C)C)C(=O)O`
result: 0.0069

query: # DR8w2 binding data lookup, item `CC(C)C[C@H](NC(=O)[C@H](CO)NC(=O)[C@H](C)NC(=O)[C@H](CC(N)=O)NC(=O)[C@@H](NC(=O)[C@@H]1CCCN1C(=O)[C@H](CC(C)C)NC(=O)[C@H](Cc1ccc(O)cc1)NC(=O)[C@@H](NC(=O)[C@@H](N)CC(C)C)[C@@H](C)O)[C@@H](C)O)C(=O)N[C@@H](CO)C(=O)N[C@@H](Cc1ccccc1)C(=O)N[C@@H](CC(C)C)C(=O)N[C@@H](CCC(N)=O)C(=O)N[C@@H](CC(=O)O)C(=O)O`
result: 0.0054

query: # DR8w2 binding data lookup, item `CC[C@H](C)[C@H](NC(=O)[C@H](CCCNC(=N)N)NC(=O)CNC(=O)[C@H](CCCNC(=N)N)NC(=O)[C@@H](NC(=O)[C@@H](NC(=O)[C@H](CCC(N)=O)NC(=O)[C@H](CC(C)C)NC(=O)[C@H](CC(N)=O)NC(=O)[C@H](CCC(N)=O)NC(=O)[C@H](Cc1ccccc1)NC(=O)[C@@H](NC(=O)[C@H](CO)NC(=O)[C@@H](N)CC(C)C)C(C)C)C(C)C)[C@@H](C)CC)C(=O)N[C@@H](CC(C)C)C(=O)O`
result: 0.0330

query: # DR8w2 binding data lookup, item `CC(C)C[C@H](NC(=O)[C@H](CO)NC(=O)[C@H](C)NC(=O)[C@H](CC(N)=O)NC(=O)[C@@H](NC(=O)[C@@H]1CCCN1C(=O)[C@H](CC(C)C)NC(=O)[C@H](Cc1ccc(O)cc1)NC(=O)[C@@H](NC(=O)[C@H](CC(C)C)NC(=O)[C@H](CCC(=O)O)NC(=O)[C@H](CC(C)C)NC(=O)[C@@H](N)CC(N)=O)[C@@H](C)O)[C@@H](C)O)C(=O)N[C@@H](CO)C(=O)N[C@@H](Cc1ccccc1)C(=O)O`
result: 0.0220

query: # DR8w2 binding data lookup, item `CC[C@H](C)[C@H](NC(=O)[C@H](CCCCN)NC(=O)[C@H](CCCCN)NC(=O)[C@@H](N)CS)C(=O)N[C@@H](Cc1ccccc1)C(=O)NCC(=O)N[C@@H](CO)C(=O)N[C@@H](CC(C)C)C(=O)N[C@@H](C)C(=O)N[C@@H](Cc1ccccc1)C(=O)N[C@@H](CC(C)C)C(=O)N1CCC[C@H]1C(=O)N[C@@H](CCC(=O)O)C(=O)N[C@@H](CO)C(=O)N[C@@H](Cc1ccccc1)C(=O)O`
result: −0.0004

query: # DR8w2 binding data lookup, item `CC[C@H](C)[C@H](NC(=O)CNC(=O)[C@H](CC(=O)O)NC(=O)[C@H](Cc1ccc(O)cc1)NC(=O)[C@@H]1CCCN1C(=O)[C@H](CCCCN)NC(=O)[C@H](C)NC(=O)CNC(=O)[C@H](Cc1ccccc1)NC(=O)[C@@H](NC(=O)[C@H](CCSC)NC(=O)[C@H](CC(C)C)NC(=O)[C@H](CCC(=O)O)NC(=O)[C@H](Cc1c[nH]c2ccccc12)NC(=O)[C@@H](N)C(C)C)[C@@H](C)O)C(=O)O`
result: 0.0089

query: # DR8w2 binding data lookup, item `CC[C@H](C)[C@H](NC(=O)[C@H](C)NC(=O)[C@@H](NC(=O)[C@@H]1CCCN1C(=O)[C@@H](NC(=O)[C@H](CCCCN)NC(=O)[C@@H](NC(=O)[C@H](CC(N)=O)NC(=O)[C@H](CCC(=O)O)NC(=O)CN)C(C)C)[C@@H](C)CC)C(C)C)C(=O)N[C@@H](CCCCN)C(=O)N[C@H](C(=O)N[C@@H](CC(C)C)C(=O)N[C@@H](CCCNC(=N)N)C(=O)N[C@@H](CCC(=O)O)C(=O)O)C(C)C`
result: 0.0010
